The reported measurements were obtained from a melting point compilation (Tetko et al.; mined from patent text by program, amines drawn as free bases though some values may be those of a salt).

Reported melting point values follow for various compounds

Here's what some known entries look like.
>>> observed("O=C(O)Cn1cc(Cc2cccc(OCc3ccc4ccccc4n3)c2)c2ccccc21")
"151 to 159 °C"
>>> observed("CN(C)CCc1ccc(O)c2c1=NS(=O)(=O)N=2")
"202 to 205 °C"
>>> observed("Cc1ccc2[nH]c(-c3ccccc3O)cc2c1")
"211 to 215 °C"
>>> observed("CCOC(=O)c1c(CSc2ccccc2)n(C)c2cc(Br)c(O)cc12")
"196 to 197 °C"

// melting point lookup, compound = CCCCCCCCC(SCCCCCC)C(=O)Nc1c(SC)cc(NC(C)=O)c2ncc(C)cc12 (stereo not given) , result: 128 to 131 °C

melting point reading for Cc1cc(O)ccc1-c1cc2cc(O)ccc2o1 : 167 to 169 °C

Entry under test: CCCCCCCCCCCc1nnc2n1-c1ccccc1C(c1ccccc1)OC2 (stereo not given) . Its melting point was 83 to 84 °C

Reported melting point ( c1csc(-c2nc3ccc(N4CCNCC4)nn3c2-c2ccncc2)c1 ) = 217 to 220 °C

Entry COCCCN(C(=O)N(CCCl)N=O)C1(O)COC(OCC(C)C)C(O)C1O (stereo not given) , melting point reported as 67 to 69 °C

Documented melting point of CN1CCN(c2ccc(S(=O)(=O)Oc3cccc(F)c3)cc2)C1=O : 175 to 177 °C
